test: Drug level in Tg6799 mouse plasma at 1 mg/kg, ip after 10 mins by LC-MS/MS analysis
Type: ADME, organism-based
Design: dose 1 mg/kg, route intraperitoneal
conditionsUsed: read-out: Drug uptake
observable: concentration at 10 min (ng/mL)
Your answer is read as ng/mL, so omit the unit and give the number.

(Q) So what's the measured concentration at 10 min for this one? Cc1cc(SCc2cc(=O)[nH][nH]2)c(C)cc1Cl
(A) 1960

---

test: Half life in mouse microsome by LC-MS/MS analysis
Type: ADME, microsomes
conditionsUsed: mouse microsomes
observable: half-life (min)
Your answer is read as min, so omit the unit and give the number.

(Q) So what's the measured half-life for this one? Cc1cc(SCC2=NNC(=O)/C2=C\N(C)C)c(Cl)cc1Cl
(A) 4

// provenance: ChEMBL document CHEMBL1641427
